- Target under test: PD-L1 His protein / PD-1 Fc protein (Homo sapiens (Human), UniProt Q9NZQ7)
- Sequence (Q9NZQ7 19-238): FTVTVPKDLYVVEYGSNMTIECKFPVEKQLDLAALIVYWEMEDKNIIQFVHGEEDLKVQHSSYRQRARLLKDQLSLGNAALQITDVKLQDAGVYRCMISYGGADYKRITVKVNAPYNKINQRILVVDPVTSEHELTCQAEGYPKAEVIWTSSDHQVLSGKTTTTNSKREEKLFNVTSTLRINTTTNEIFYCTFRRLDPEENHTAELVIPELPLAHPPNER
- Test method notes: HTRF Assay (PD-1/PD-L1 interaction)
- Type: binding
- Study conditions: PD-L1 His 6 nM, PD-1 Fc 6 nM
Reported property: IC50 (nM)

>>> recorded_number("CN1CCNCc2ccc(-c3nccc(-c4cccc(-c5ccc6c(CNC[C@@H]7CCC(=O)N7)cn(C)c6n5)c4Cl)c3Cl)cc21 [Compound 9]")
15.5
>>> recorded_number("COc1nc(-c2cccc(-c3ccnc(-c4cc5c(=O)n(C)c(CN6CC(C)(O)C6)nn5c4)c3Cl)c2Cl)ccc1CNC[C@@H]1CCC(=O)N1 [Compound 110]")
0.9
>>> recorded_number("COc1cc(-c2nccc(-c3cccc(-c4ccc(CNC5CCOCC5)c(OC)n4)c3C)c2C)ccc1CNC1CCOCC1 [Example 425]")
7.08
